biological target: T1, mouse serum albumin (mouse, UniProt P07724 25-608); experiment: Octet HTX (ForteBio), HCAb on AHC sensor, 1:1 fit
T1 construct: also called MSA
T1 sequence (P07724 25-608 limits assumed): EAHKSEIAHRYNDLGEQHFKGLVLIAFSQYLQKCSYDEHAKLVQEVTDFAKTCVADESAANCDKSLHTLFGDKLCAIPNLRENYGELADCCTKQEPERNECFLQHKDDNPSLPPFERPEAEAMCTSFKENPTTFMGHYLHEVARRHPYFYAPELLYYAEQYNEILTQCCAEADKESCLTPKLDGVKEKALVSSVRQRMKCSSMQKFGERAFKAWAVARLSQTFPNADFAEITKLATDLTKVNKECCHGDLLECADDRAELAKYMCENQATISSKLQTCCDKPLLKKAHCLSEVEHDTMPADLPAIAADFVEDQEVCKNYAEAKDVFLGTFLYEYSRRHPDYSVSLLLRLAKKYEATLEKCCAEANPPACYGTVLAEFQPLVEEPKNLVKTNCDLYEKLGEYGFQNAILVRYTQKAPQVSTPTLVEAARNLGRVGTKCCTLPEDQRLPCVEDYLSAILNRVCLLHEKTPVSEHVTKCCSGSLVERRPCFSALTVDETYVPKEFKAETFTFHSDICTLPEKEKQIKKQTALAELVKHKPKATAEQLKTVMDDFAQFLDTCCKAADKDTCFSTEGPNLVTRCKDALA
pKd: −log10 of the molar value.
# pKd per entry
endpoint-label: pKd

CNG-HSA-103 (VHH) VHH: KVQLVESGGGLVQPGGSLRLSCAASGFTFSSFGMTWVRQAPGKGLEWVSSISGSGSDTLYADSVRGRFTISRDNSKNTLYLQMNSLRPEDTAVYYCTIGGSLSPSSQGTLVTVSS	7.82
CNG-HSA-106 (VHH) VHH: KVQLLESGGGLVQPGGSLRLSCAASGFTFSSFGMSWVRQAPGKGLEWVSSISGSGSDTLYADSVRGRFTISRDNSKNTLYLQMDSLRAEDTAVYYCTIGGSRSISSQGTLVTVSS	7.24
CNG-HSA-111 (VHH) VHH: KVQLVESGGGLVQPGGSLRLSCAASGFTFSSFGMSWVRQAPGKGLEWVSSISGSGSDTLYADSVEGRFTISRDNSKNTLYLQMNSLRAEDTAVYYCTIGGSLKQSSQGTLVTVSS	7.99
CNG-HSA-118 (VHH) VHH: KVQLVESGGGLVQPGNSLRLSCAASGFTFSSFGMSWVRQAPGKGLEWVSSISGGGSDTLYADSVRGRFTISRDNSKNTLYLQMNSLRAEDTAVYYCTIGGSLRASSQGTLVTVSS	7.92
CNG-HSA-110 (VHH) VHH: KVQLVESGGGLVQPGNSLRLSCAASGFTFSSFGMSWVRQAPGKGLEWVSSISGSGGDTLYADSAKGRFTISRDNSKNTLYLQMNSLRPEDTAVYYCTIGGSLSRSSQGTLVTVSS	7.41
CNG-HSA-101 (VHH) VHH: KVQLVESGGGLVQPGGSLRLSCAASGFTFSSFGMTWVRQAPGKGLEWVSSISGSGSDTLYADSVRGRFTISRDNSKNTLYLQMNSLRAEDTAVYYCTIGGSLSPSSQGTLVTVSS	7.79
CNG-HSA-120 (VHH) VHH: KVQLVESGGGLVQPGGSLRLSCAASGFTFSSFGMSWVRQAPGKGPEWVSSISGSGSDTLYADSVKGRFTISRDNSKNTLYLQMNSLRPEDTAVYYCTIGGSLKQSSQGTLVTVSS	8.36
CNG-HSA-116 (VHH) VHH: KVQLVESGGGLVQPGGSLRLSCAASGFTFSSFGMSWVRQAPGKGPEWVSSISGSGSDTLYADSVKGRFTISRDNSKNTLYLQMNSLRAEDTAVYYCTIGGSLRASSQGTLVTVSS	8.34
CNG-HSA-112 (VHH) VHH: KVQLLESGGGLVQPGGSLRLSCAASGFTFPSFGMSWVRQAPGKGLEWVSSISGSGSDTLYADSVKGRFTISRDNAKTTLYLQMNSLRPEDTAVYYCTIGGSVSKSSRGTLVTVSS	7.18
CNG-HSA-115 (VHH) VHH: KVQLVESGGGLVQPGNSLRLSCAASGFTFSSFGMGWVRQAPGKGLEWVSSISGSGSDTLYAPSVKGRFTISRDNSKNTLYLQMNSLRPEDTAVYYCTFAGSLSRSSQGTLVTVSS	8.19
CNG-HSA-104 (VHH) VHH: KVQLLESGGGLVQPGGSLRLSCAASGFTFHSFGMSWVRQAPGKGLEWVSSISGSGSDTLYADSVKGRFTISRDNSKNTLYLQMNSLRPEDTAVYYCTIGGSLSRSSQGTLVTVSS	7.30
CNG-HSA-105 (VHH) VHH: EVQLLESGGGLVQPGGSLRLSCAASGFVFSSFGMSWVRQAPGKGLEWVSSISGSGSDTLYADSVKGRFTISRDNSKNTLYLQMNSLRPEDTAVYYCTIGGSLSRSSQGTLVTVSS	6.81
CNG-HSA-119 (VHH) VHH: KVQLVESGGGLVQPGNSLRLSCAASGFTFSSFGMSWVRQAPGKGLEWVSSISGSGSDALYADSAKGRFTISRDNAKTTLYLQMNSLRAEDTAVYYCTIGGSLSPSSQGTLVTVSS	7.39
CNG-HSA-108 (VHH) VHH: KVQLVESGGGLVQPGGSLRLSCAASGFTFGSFGMSWVRQAPGKGLEWVSSISGSGADTLYADSVKGRFTISRDNSKNTLYLQMNSLRAEDTAVYYCTIGGSLRASSQGTLVTVSS	8.09
CNG-HSA-113 (VHH) VHH: GVQLLESGGGLVQPGGSLRLSCAASGFTFSSFGMSWVRQAPGKGLEWVSSISGTGSDTLYADSVKGRFTISRDNSKNTLYLQMNSLRPEDTAVYYCTIGGSLRYSSQGTLVTVSS	7.28

The values you see were collected from patent US20230037815A1.
